Target: recombinant human JAK1 kinase domain protein (Residues 854-1154) (Homo sapiens, UniProt P23458)
Construct: human JAK1 kinase domain protein (Residues 854-1154)
Sequence (P23458 854-1154): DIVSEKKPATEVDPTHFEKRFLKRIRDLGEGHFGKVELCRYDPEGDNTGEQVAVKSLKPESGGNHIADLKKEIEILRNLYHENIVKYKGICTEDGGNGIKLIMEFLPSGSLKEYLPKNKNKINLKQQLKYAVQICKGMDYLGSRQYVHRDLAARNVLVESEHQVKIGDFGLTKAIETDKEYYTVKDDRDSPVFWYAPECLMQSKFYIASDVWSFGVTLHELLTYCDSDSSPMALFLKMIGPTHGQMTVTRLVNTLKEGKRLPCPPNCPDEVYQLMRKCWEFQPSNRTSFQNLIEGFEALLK
Experiment: JAK1 biochemical assay (LabChip mobility shift, Ki)
Conditions: read-out: Biochem JAK1 Ki
pKi: −log10 of the molar value.
experimental.endpoint: pKi

CNCc1cccc(Oc2ccc(OC(F)F)c(-c3n[nH]cc3NC(=O)c3cnn4cccnc34)c2)c1 [Example 15] | 9.49

P: CN1CC(O)(c2cccc(Oc3ccc(OC(F)F)c(-c4nn(C)cc4NC(=O)c4cnn5cccnc45)c3)n2)C1 [Example 190]
Q: O=C(Nc1cn(CCN[C@H]2C[C@H](O)C2)nc1-c1cc(Oc2ccccc2)ccc1OC(F)F)c1cnn2cccnc12 [Example 43]
Req: Choose between P and Q : whose measured pKi value is numerically larger? Identify your pick by its label.
Resp: Q

----------
Target: Recombinant human JAK2 kinase domain protein (Residues 812-1132) (Homo sapiens, UniProt O60674)
Sequence (O60674 812-1132): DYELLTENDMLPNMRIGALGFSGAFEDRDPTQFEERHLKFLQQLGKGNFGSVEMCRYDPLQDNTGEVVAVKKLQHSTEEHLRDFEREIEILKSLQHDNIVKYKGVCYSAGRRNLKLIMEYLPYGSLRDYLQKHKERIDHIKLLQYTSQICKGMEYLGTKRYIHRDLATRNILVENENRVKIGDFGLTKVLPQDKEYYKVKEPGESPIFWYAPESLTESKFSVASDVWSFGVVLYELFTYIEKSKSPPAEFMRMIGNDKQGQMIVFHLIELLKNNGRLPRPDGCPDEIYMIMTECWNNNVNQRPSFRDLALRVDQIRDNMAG
Assay: JAK2 biochemical assay (LabChip mobility shift, Ki)
Conditions: Biochem JAK2 Ki
experimental.endpoint: Ki (nM)

Cn1cc(NC(=O)c2cnn3cccnc23)c(-c2cc(Oc3cccc(C4CNC4)c3)ccc2OC(F)F)n1 | 0.41

I: Cn1cc(NC(=O)c2cnn3cccnc23)c(-c2cc(Oc3cccc(CN[C@H]4C[C@H](O)C4)c3)ccc2OC(F)F)n1
II: CN1CCN(C(=O)Cn2cc(Oc3ccc(OC(F)F)c(-c4nn(C)cc4NC(=O)c4cnn5cccnc45)c3)cn2)CC1
III: CCn1cc(NC(=O)c2cnn3cccnc23)c(-c2cc(Oc3cnn(CC4(O)CN(C)C4)c3)ccc2OC(F)F)n1
Req: Arrange these compounds by their Ki, starting with the largest number. Show the ranking through the labels, in the order asked for.
Resp: III, I, II
(III: 1.2 nM, I: 0.74 nM, II: 0.31 nM)

----------
Target: Recombinant human JAK2 kinase domain protein (Residues 812-1132) (Homo sapiens)
Assay: JAK2 biochemical assay (LabChip mobility shift, Ki)
Conditions: Biochem JAK2 Ki
pKi: −log10 of the molar value.
experimental.endpoint: pKi

Cn1cc(NC(=O)c2cnn3cccnc23)c(-c2cc(Oc3cccc(C4CNCCO4)c3)ccc2OC(F)F)n1 (racemic) [Example 38] | 9.42
Cn1cc(NC(=O)c2cnn3cccnc23)c(-c2cc(Oc3cc(Cl)cc(C4(O)CNC4)c3)ccc2OC(F)F)n1 [Example 99] | 9.51
Cn1cc(NC(=O)c2cnn3cccnc23)c(-c2cc(Oc3ccc(CN4CCC4CO)cc3)ccc2OC(F)F)n1 (racemic) [Example 168] | 9.24
Cn1cc(NC(=O)c2cnn3cccnc23)c(-c2cc(Oc3cccc(C(=O)N4CCNCC4)c3)ccc2OC(F)F)n1 [Example 80] | 9.46
CCn1cc(NC(=O)c2cnn3cccnc23)c(-c2cc(Oc3cc(F)cc(C4(O)CNC4)c3)ccc2OC(F)F)n1 [Example 111] | 9.25

I: CN1CC(O)(Cn2cc(Oc3ccc(OC(F)F)c(-c4nn(C)cc4NC(=O)c4cnn5cccnc45)c3)cn2)C1 [Example 128]
II: CN1CCC(n2cc(Oc3ccc(OC(F)F)c(-c4nn(C)cc4NC(=O)c4cnn5cccnc45)c3)cn2)C1 (racemic) [Example 140]
Req: Quick one: lower pKi, I or II ? Identify your pick by its label.
Resp: II
(II: 8.72, I: 9.39)

----------
Biological target: recombinant human JAK1 kinase domain protein (Residues 854-1154) (Homo sapiens)
Construct: human JAK1 kinase domain protein (Residues 854-1154)
Assay: JAK1 biochemical assay (LabChip mobility shift, Ki)
Settings: read-out: Biochem JAK1 Ki
pKi: −log10 of the molar value.
experimental.endpoint: pKi

a: CN1CCC(n2cc(Oc3ccc(OC(F)F)c(-c4nn(C)cc4NC(=O)c4cnn5cccnc45)c3)cn2)C1 (racemic) [Example 140]
b: Cn1cc(NC(=O)c2cnn3cccnc23)c(-c2cc(Oc3ccc(CN4CCOCC4)cc3)ccc2OC(F)F)n1 [Example 61]
Req: Choose between a and b : whose measured pKi value is numerically larger? Identify your pick by its label.
Resp: a
(a: 8.59, b: 8.29)

----------
Target: recombinant human JAK1 kinase domain protein (Residues 854-1154) (Homo sapiens)
Construct: human JAK1 kinase domain protein (Residues 854-1154)
Experiment: JAK1 biochemical assay (LabChip mobility shift, Ki)
Details: read-out: Biochem JAK1 Ki
pKi: −log10 of the molar value.
experimental.endpoint: pKi

Example entries and their recorded answers appear below.
Cn1cc(NC(=O)c2cnn3cccnc23)c(-c2cc(Oc3ccc(CN4CCCC(O)C4)cc3)ccc2OC(F)F)n1 (racemic) [Example 164] | 8.49
CN1CCC(n2cc(Oc3ccc(OC(F)F)c(-c4nn(C)cc4NC(=O)c4cnn5cccnc45)c3)cn2)C(O)C1 (centres unmarked) [Example 187] | 9.46
CCn1cc(NC(=O)c2cnn3cccnc23)c(-c2cc(Oc3cnn(CC4(O)CN(C)C4)c3)ccc2OC(F)F)n1 [Example 208] | 8.92

1: Cc1cc(Oc2ccc(OC(F)F)c(-c3nn(C)cc3NC(=O)c3cnn4cccnc34)c2)ccc1C(=O)N(C)C [Example 74]
2: CN(C)C(=O)c1cccc(Oc2ccc(OC(F)F)c(-c3nn(C)cc3NC(=O)c3cnn4cccnc34)c2)c1 [Example 62]
3: Cn1cc(NC(=O)c2cnn3cccnc23)c(-c2cc(Oc3ccc(CN4CCC[C@@H]4CO)cc3)ccc2OC(F)F)n1 (racemic) [Example 171]
Req: Ascending by pKi, please: list the compounds accordingly. Show the ranking through the labels, in the order asked for.
Resp: 3, 1, 2

1: CN1CC(O)(c2cc(Oc3ccc(OC(F)F)c(-c4nn(C)cc4NC(=O)c4cnn5cccnc45)c3)cc(C3CC3)c2)C1 [Example 110]
2: Cn1cc(NC(=O)c2cnn3cccnc23)c(-c2cc(Oc3ccc(CC(=O)N4CCOCC4)cc3)ccc2OC(F)F)n1 [Example 156]
Req: Quick one: lower pKi, 1 or 2 ? Identify your pick by its label.
Resp: 1
(1: 9.16, 2: 9.57)

----------
Target: Recombinant human JAK2 kinase domain protein (Residues 812-1132) (Homo sapiens, UniProt O60674)
Assay: JAK2 biochemical assay (LabChip mobility shift, Ki)
Conditions: Biochem JAK2 Ki
experimental.endpoint: Ki (nM)

CCN1CCC(O)(Cn2cc(Oc3ccc(OC(F)F)c(-c4nn(C)cc4NC(=O)c4cnn5cccnc45)c3)cn2)CC1 [Example 212] | 0.6
Cc1ccc(Oc2ccc(OC(F)F)c(-c3n[nH]cc3NC(=O)c3cnn4cccnc34)c2)cc1CC(=O)N(C)C [Example 17] | 0.21
Cn1cc(NC(=O)c2cnn3cccnc23)c(-c2cc(Oc3ccnc(CN)c3)ccc2OC(F)F)n1 [Example 40] | 0.77

I: COCCNCc1cccc(Oc2ccc(OC(F)F)c(-c3nn(C)cc3NC(=O)c3cnn4cccnc34)c2)c1 [Example 27]
II: Cn1cc(NC(=O)c2cnn3cccnc23)c(-c2cc(Oc3cccc(CN4CCO[C@@H](CO)C4)c3)ccc2OC(F)F)n1 (stereo in doubt) [Example 75]
Req: Quick one: lower Ki, I or II ? Identify your pick by its label.
Resp: I
(I: 0.55 nM, II: 0.89 nM)

P: Cn1cc(NC(=O)c2cnn3cccnc23)c(-c2cc(Oc3cccc([C@@H]4COCCN4)c3)ccc2OC(F)F)n1 (stereo in doubt) [Example 32]
Q: O=C(Nc1c[nH]nc1-c1cc(Oc2cn[nH]c2)ccc1OC(F)F)c1cnn2cccnc12 [Example 173]
R: CN1CCC(n2cc(Oc3ccc(OC(F)F)c(-c4nn(C)cc4NC(=O)c4cnn5cccnc45)c3)cn2)C1 (racemic) [Example 141]
S: Cc1ccc(Oc2ccc(OC(F)F)c(-c3nn(CC4CCCN4C)cc3NC(=O)c3cnn4cccnc34)c2)cc1C(=O)N(C)C (racemic) [Example 51]
Req: Ascending by Ki, please: list the compounds accordingly. Show the ranking through the labels, in the order asked for.
Resp: Q, P, R, S

P: O=C(Nc1c[nH]nc1-c1cc(Oc2ccccc2)ccc1OC(F)F)c1cnn2cccnc12 [Example 1]
Q: CC(C)N1CC(O)(Cn2cc(Oc3ccc(OC(F)F)c(-c4nn(C)cc4NC(=O)c4cnn5cccnc45)c3)cn2)C1 [Example 201]
R: Cn1cc(NC(=O)c2cnn3cccnc23)c(-c2cc(Oc3cnn(C4CNCC4O)c3)ccc2OC(F)F)n1 (stereo not shown) [Example 176]
S: Cn1cc(NC(=O)c2cnn3cccnc23)c(-c2cc(Oc3cccc(CNC4COC4)c3)ccc2OC(F)F)n1 [Example 29]
T: CN1CC(O)(c2cccc(Oc3ccc(OC(F)F)c(-c4nn(C5CCOCC5)cc4NC(=O)c4cnn5cccnc45)c3)c2)C1 [Example 98]
Req: Ascending by Ki, please: list the compounds accordingly. Show the ranking through the labels, in the order asked for.
Resp: P, R, Q, S, T
(P: 0.096 nM, R: 0.21 nM, Q: 0.34 nM, S: 0.72 nM, T: 2.8 nM)
